- Assay type: in vivo, human
- assay.setup: human, plasma, po, 250 mg
measured.quantity: Tmax (h)
Hi! Could you send only the number? It should be in h, unit omitted.

Q) I'd like to know its Tmax. The compound in question is C[C@@H](Oc1cc(-c2cnn(C3CCNCC3)c2)cnc1N)c1c(Cl)ccc(F)c1Cl [Crizotinib]
A) 5

* * *

- Type: in vivo, human
- assay.setup: human, plasma, oral, 250 mg, AUCinf, Adjusted Geometric Mean, Reference, Reference: single 250-mg crizotinib dose after overnight fasting
measured.quantity: AUC(0-inf) (µg·h/mL)
Hi! Could you send only the number? It should be in µg·h/mL, unit omitted.

Q) I'd like to know its AUC(0-inf). The compound in question is `C[C@@H](Oc1cc(-c2cnn(C3CCNCC3)c2)cnc1N)c1c(Cl)ccc(F)c1Cl`
A) 2.37

* * *

- Assay type: in vivo, human
- assay.setup: human, plasma, oral, 250 mg, AUClast, Adjusted Geometric Mean, Reference, Reference: single 250-mg crizotinib dose after overnight fasting
measured.quantity: AUC(0-t)
In your response, put the unit directly after the numeric value.

Q) I'd like to know its AUC(0-t). The compound in question is `C[C@@H](Oc1cc(-c2cnn(C3CCNCC3)c2)cnc1N)c1c(Cl)ccc(F)c1Cl`
A) 2240 ng·h/mL

* * *

- Assay type: in vivo, human
- assay.setup: human, plasma, po, 250 mg, AUClast, Arithmetic Mean ± SD, healthy participants, plasma, single oral crizotinib 250 mg on day 5 of esomeprazole 40 mg/day (n = 15)
measured.quantity: AUC(0-t) (ng·h/mL)
Hi! Could you send only the number? It should be in ng·h/mL, unit omitted.

Q) I'd like to know its AUC(0-t). The compound in question is `C[C@@H](Oc1cc(-c2cnn(C3CCNCC3)c2)cnc1N)c1c(Cl)ccc(F)c1Cl`
A) 2170

* * *

- Format: in vivo, human
- assay.setup: human, plasma, po, 250 mg, AUCinf, Arithmetic Mean ± SD, healthy participants, plasma, single oral crizotinib 250 mg on day 5 of esomeprazole 40 mg/day (n = 15)
measured.quantity: AUC(0-inf) (ng·h/mL)
Hi! Could you send only the number? It should be in ng·h/mL, unit omitted.

Q) I'd like to know its AUC(0-inf). The compound in question is C[C@@H](Oc1cc(-c2cnn(C3CCNCC3)c2)cnc1N)c1c(Cl)ccc(F)c1Cl [Crizotinib]
A) 2260

* * *

- Assay type: in vivo, human
- assay.setup: human, plasma, po, 250 mg, t1/2 (terminal elimination half-life), Arithmetic Mean ± SD, healthy participants, plasma, single oral crizotinib 250 mg after overnight fast, alone (n = 15)
measured.quantity: half-life

Q) I'd like to know its half-life. The compound in question is C[C@@H](Oc1cc(-c2cnn(C3CCNCC3)c2)cnc1N)c1c(Cl)ccc(F)c1Cl [Crizotinib]
A) 1990 min

* * *

- Type: in vivo, human
- assay.setup: human, plasma, po, 250 mg, AUCinf, Geometric Mean (%CV), healthy participants, plasma, single oral crizotinib 250 mg on day 5 of esomeprazole 40 mg/day (n = 15)
measured.quantity: AUC(0-inf) (ng·h/mL)
Hi! Could you send only the number? It should be in ng·h/mL, unit omitted.

Q) I'd like to know its AUC(0-inf). The compound in question is `C[C@@H](Oc1cc(-c2cnn(C3CCNCC3)c2)cnc1N)c1c(Cl)ccc(F)c1Cl`
A) 2120
